Tested on: 485368-065-R3-J5-PDC spheroids with HUVEC/MSC, viability
Test: Anticancer human tumor 485368-065-R3-J5-PDC patient-derived pancreatic carcinoma cell line growth inhibition [RAS]
Settings: second compound 10 µM; first compound 0.316 µM; hits give low values
Kindly state viability, T/C for each of the entries shown.
One number for each entry, in %.

Would you please look over these solved cases?
INSERT INTO measurements (compound, quantity, number) VALUES
  ('C=CC(=O)N1CCN(c2nc(OCC3CCCN3C)nc3c(F)c(-c4nc(N)cc(C)c4C(F)(F)F)c(Cl)cc23)C(C)C1 (stereo unspecified) + C#Cc1c(F)ccc2cc(O)cc(-c3ncc4c(N5CC6CCC(C5)N6)nc(OCC56CCCN5CC(F)C6)nc4c3F)c12', 'viability, T/C', 36.5),
  ('CCC(CC)c1cc(NC2CCC(N)C2)n2nccc2n1 (stereo unspecified) + C#Cc1c(F)ccc2cc(O)cc(-c3ncc4c(N5CC6CCC(C5)N6)nc(OCC56CCCN5CC(F)C6)nc4c3F)c12', 'viability, T/C', 61.7),
  ('NC1c2ccccc2OC12CCN(c1cnc3c(N4CCCc5ncccc54)n[nH]c3n1)CC2 (stereo unspecified) + C#Cc1c(F)ccc2cc(O)cc(-c3ncc4c(N5CC6CCC(C5)N6)nc(OCC56CCCN5CC(F)C6)nc4c3F)c12', 'viability, T/C', 17.9),
  ('O=C(c1ccc(F)c(F)c1Nc1ccc(I)cc1F)N1CC(O)([C@@H]2CCCCN2)C1 + C#Cc1c(F)ccc2cc(O)cc(-c3ncc4c(N5CC6CCC(C5)N6)nc(OCC56CCCN5CC(F)C6)nc4c3F)c12', 'viability, T/C', 11.2),
  ('CC1(O)CCCC1n1c(=O)c(C(F)F)cc2cnc(NC3CCN(S(C)(=O)=O)CC3)nc21 (stereo unspecified) + C#Cc1c(F)ccc2cc(O)cc(-c3ncc4c(N5CC6CCC(C5)N6)nc(OCC56CCCN5CC(F)C6)nc4c3F)c12', 'viability, T/C', 28.6);

For every record below, what is its viability, T/C?
1. C[C@@H](NC(=O)c1ncnc(N)c1Cl)c1ncc(C(=O)Nc2cc(C(F)(F)F)c(Cl)cn2)s1 + C#Cc1c(F)ccc2cc(O)cc(-c3ncc4c(N5CC6CCC(C5)N6)nc(OCC56CCCN5CC(F)C6)nc4c3F)c12
2. Cc1nc(N2CCC3(CC2)COC(C)C3N)c(CO)nc1Sc1ccnc(N)c1Cl (stereo unspecified) + C#Cc1c(F)ccc2cc(O)cc(-c3ncc4c(N5CC6CCC(C5)N6)nc(OCC56CCCN5CC(F)C6)nc4c3F)c12

Response:
[50.3, 24.3]

###

Tested on: 485368-065-R3-J5-PDC spheroids with HUVEC/MSC, viability
Assay: Anticancer human tumor 485368-065-R3-J5-PDC cell line growth inhibition [RAS]; active = viability on the fitted dose curve at most 10% of control; inactive = the rest;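 also: spheroids exposed to agents for seven days before readout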
Conditions: compound 0.3 µM
I would appreciate it if you answered using one of these outcomes: yes = active, no = inactive

INSERT INTO measurements (compound, label_value) VALUES
  ('CC1(C)CCC(Nc2ncc(C(F)(F)F)c(-c3c[nH]c4c(P(C)(C)=O)c(C#N)ccc34)n2)CN1 (centres undefined)', 'no'),
  ('CCn1c(-c2cccnc2C(C)OC)c2c3cc(ccc31)N1CCOC(CC(NC(=O)C(C(C)C)N(C)C(=O)C3(F)CCN(C(=O)C#CC(C)(C)N(C)C)CC3)C(=O)N3CCCC(N3)C(=O)OCC(C)(C)C2)C1 (centres undefined)', 'no'),
  ('CCn1c(-c2cc(N3CCN(C)CC3)cnc2C(C)OC)c2c3cc(ccc31)-c1csc(n1)CC(NC(=O)C1CC1C)C(=O)N1CCCC(N1)C(=O)OCC(C)(C)C2 (centres undefined)', 'yes');

Next compound, please.
Query: Can you look up the reported call for CCc1c2c(nc3ccc(O)cc13)-c1cc3c(c(=O)n1C2)COC(=O)[C@]3(O)CC for me?
Response: yes
